# System: hiPSC-CMs (iCell-Cardiomyocytes^2)
# measurement.conditions: 0.1 µM, 72h
Reported BR (beating rate), % change from baseline by item:

Past entries and their recorded results:
# compound, value
data = [
    ("N=C(N)c1ccc(OCCCCCOc2ccc(C(=N)N)cc2)cc1", "-6±3%"),
    ("COc1cc2c(Nc3ccc(Br)cc3F)ncnc2cc1OCC1CCN(C)CC1", "-17±2 %"),
    ("O=C(O)COCCN1CCN(C(c2ccccc2)c2ccc(Cl)cc2)CC1 (centres unmarked)", "0±2%"),
    ("CCN(CC)CCNC(=O)c1c(C)[nH]c(/C=C2\\C(=O)Nc3ccc(F)cc32)c1C", "-17±2 %"),
]

Consider the compound `COc1cccc2c1C(=O)c1c(O)c3c(c(O)c1C2=O)C[C@@](O)(C(=O)CO)C[C@@H]3O[C@H]1C[C@H](N)[C@H](O)[C@H](C)O1` and give its recorded BR (beating rate), % change from baseline.
22±6 %

###

# Test system: hiPSC-CMs (iCell-Cardiomyocytes^2)
# test.description: MEA impedance (cytotoxicity readout) in hiPSC-CMs
# measurement.conditions: 0.3 µM, 2h
quantity.measured: Imp (impedance), % change from baseline (%)
Kindly provide the numeric value in % only, without the unit symbol.

# molecule, system.tested, quantity.measured, scale.unit, value
data = [
    ("CCN(CC)CCNC(=O)c1c(C)[nH]c(/C=C2\\C(=O)Nc3ccc(F)cc32)c1C", "hiPSC-CMs (iCell-Cardiomyocytes^2)", "Imp (impedance), % change from baseline", "%", 5),
]

Given the molecule `COc1cccc2c1C(=O)c1c(O)c3c(c(O)c1C2=O)C[C@@](O)(C(=O)CO)C[C@@H]3O[C@H]1C[C@H](N)[C@H](O)[C@H](C)O1` , write its reported Imp (impedance), % change from baseline.
-1

Answer with the recorded Imp (impedance), % change from baseline of `C#Cc1cccc(Nc2ncnc3cc(OCCOC)c(OCCOC)cc23)c1` only.
0

// fetch Imp (impedance), % change from baseline given entry `CC(C)(Sc1cc(C(C)(C)C)c(O)c(C(C)(C)C)c1)Sc1cc(C(C)(C)C)c(O)c(C(C)(C)C)c1`
2

Query Imp (impedance), % change from baseline for `N=C(N)c1ccc(OCCCCCOc2ccc(C(=N)N)cc2)cc1`
6

Answer with the recorded Imp (impedance), % change from baseline of `COc1cc2c(Nc3ccc(Br)cc3F)ncnc2cc1OCC1CCN(C)CC1` only.
-2

# return recorded Imp (impedance), % change from baseline for entry O=C(O)COCCN1CCN(C(c2ccccc2)c2ccc(Cl)cc2)CC1 (stereo not drawn)
-3

Supply Imp (impedance), % change from baseline value. Item: COc1nc(N)nc2c1ncn2[C@@H]1O[C@H](COP(=O)(N[C@@H](C)C(=O)OCC(C)(C)C)Oc2cccc3ccccc23)[C@@H](O)[C@@]1(C)O (stereo partly drawn)
-4

Answer with the recorded Imp (impedance), % change from baseline for the molecule listed here: `Cc1cn(-c2cc(NC(=O)c3ccc(C)c(Nc4nccc(-c5cccnc5)n4)c3)cc(C(F)(F)F)c2)cn1`
-1

###

# Test system: hiPSC-CMs (iCell-Cardiomyocytes^2)
# test.description: MEA impedance (cytotoxicity readout) in hiPSC-CMs
# measurement.conditions: 0.1 µM, 2h
quantity.measured: Imp (impedance), % change from baseline (%)
Give the value, in units of %, as a plain number.

Observe how each entry below is paired with its result.
# molecule, Imp (impedance), % change from baseline / %
data = [
    ("COc1cccc2c1C(=O)c1c(O)c3c(c(O)c1C2=O)C[C@@](O)(C(=O)CO)C[C@@H]3O[C@H]1C[C@H](N)[C@H](O)[C@H](C)O1", 3),
    ("COc1cc2c(Nc3ccc(Br)cc3F)ncnc2cc1OCC1CCN(C)CC1", -3),
    ("Cc1cn(-c2cc(NC(=O)c3ccc(C)c(Nc4nccc(-c5cccnc5)n4)c3)cc(C(F)(F)F)c2)cn1", -2),
    ("CCN(CC)CCNC(=O)c1c(C)[nH]c(/C=C2\\C(=O)Nc3ccc(F)cc32)c1C", 6),
    ("N=C(N)c1ccc(OCCCCCOc2ccc(C(=N)N)cc2)cc1", 6),
]

Moving on to another molecule below.
# return Imp (impedance), % change from baseline for O=C(O)COCCN1CCN(C(c2ccccc2)c2ccc(Cl)cc2)CC1 (stereo not drawn) , test system: hiPSC-CMs (iCell-Cardiomyocytes^2)
-4

###

Known BR (beating rate), % change from baseline of a selection of compounds
# System: hiPSC-CMs (iCell-Cardiomyocytes^2)
# measurement.conditions: 3 µM, 72h
Report the value in % with no unit label.

Below, each entry is followed by its recorded BR (beating rate), % change from baseline result.
# compound, value
data = [
    ("COc1nc(N)nc2c1ncn2[C@@H]1O[C@H](COP(=O)(N[C@@H](C)C(=O)OCC(C)(C)C)Oc2cccc3ccccc23)[C@@H](O)[C@@]1(C)O (stereo partly shown)", 12),
    ("O=C(O)COCCN1CCN(C(c2ccccc2)c2ccc(Cl)cc2)CC1 (stereo not shown)", -5),
    ("CC(=O)Oc1ccccc1C(=O)O", -10),
]

Lab note: next compound to report on.
Retrieve BR (beating rate), % change from baseline measured for `CC(C)(Sc1cc(C(C)(C)C)c(O)c(C(C)(C)C)c1)Sc1cc(C(C)(C)C)c(O)c(C(C)(C)C)c1` and print it.
6

###

# System: hiPSC-CMs (iCell-Cardiomyocytes^2)
# measurement.conditions: 0.1 µM, 72h
Flat T-wave-like, number of observations/total well numbers reference

Use the examples below as a reference point.
# given.smiles, value
records = [
    ("COc1cc2c(Nc3ccc(Br)cc3F)ncnc2cc1OCC1CCN(C)CC1", "0/5"),
    ("N=C(N)c1ccc(OCCCCCOc2ccc(C(=N)N)cc2)cc1", "0/6"),
]

Could you please provide reported Flat T-wave-like, number of observations/total well numbers for `Cc1cn(-c2cc(NC(=O)c3ccc(C)c(Nc4nccc(-c5cccnc5)n4)c3)cc(C(F)(F)F)c2)cn1` ? Thanks!
0/5

Provide Flat T-wave-like, number of observations/total well numbers value for the following compound: `COc1cccc2c1C(=O)c1c(O)c3c(c(O)c1C2=O)C[C@@](O)(C(=O)CO)C[C@@H]3O[C@H]1C[C@H](N)[C@H](O)[C@H](C)O1`
1/5

###

# System: hiPSC-CMs (iCell-Cardiomyocytes^2)
# measurement.conditions: 0.3 µM, 48h
# Lookup of reported Cessation of beating, number of observations/total well numbers keyed by entry

# molecule, value
data = [
    ("Cc1cn(-c2cc(NC(=O)c3ccc(C)c(Nc4nccc(-c5cccnc5)n4)c3)cc(C(F)(F)F)c2)cn1 [Nilotinib]", "0/5"),
]

Consider the molecule COc1nc(N)nc2c1ncn2[C@@H]1O[C@H](COP(=O)(N[C@@H](C)C(=O)OCC(C)(C)C)Oc2cccc3ccccc23)[C@@H](O)[C@@]1(C)O (stereo partly shown) [BMS-986094] . State its measured Cessation of beating, number of observations/total well numbers.
0/5

###

# Tested on: hiPSC-CMs (iCell-Cardiomyocytes^2)
# measurement.conditions: 1 µM, 48h
quantity.measured: Beating below threshold, number of observations/total well numbers

Some entries whose results are on file:
# compound, value
measured = [
    ("Cc1cn(-c2cc(NC(=O)c3ccc(C)c(Nc4nccc(-c5cccnc5)n4)c3)cc(C(F)(F)F)c2)cn1", "0/5"),
    ("N=C(N)c1ccc(OCCCCCOc2ccc(C(=N)N)cc2)cc1", "0/6"),
]

Note down Beating below threshold, number of observations/total well numbers recorded for COc1nc(N)nc2c1ncn2[C@@H]1O[C@H](COP(=O)(N[C@@H](C)C(=O)OCC(C)(C)C)Oc2cccc3ccccc23)[C@@H](O)[C@@]1(C)O (stereo partly drawn)
0/5

###

# Tested on: hiPSC-CMs (iCell-Cardiomyocytes^2)
# measurement.conditions: 3 µM; 2h
quantity.measured: Flat T-wave-like, number of observations/total well numbers

Solved entries:
# compound, value
rows = [
    ("N=C(N)c1ccc(OCCCCCOc2ccc(C(=N)N)cc2)cc1 [Pentamidine]", "0/6"),
    ("COc1nc(N)nc2c1ncn2[C@@H]1O[C@H](COP(=O)(N[C@@H](C)C(=O)OCC(C)(C)C)Oc2cccc3ccccc23)[C@@H](O)[C@@]1(C)O (stereo partly drawn) [BMS-986094]", "0/5"),
    ("CC(C)(Sc1cc(C(C)(C)C)c(O)c(C(C)(C)C)c1)Sc1cc(C(C)(C)C)c(O)c(C(C)(C)C)c1 [Probucol]", "0/5"),
    ("COc1cccc2c1C(=O)c1c(O)c3c(c(O)c1C2=O)C[C@@](O)(C(=O)CO)C[C@@H]3O[C@H]1C[C@H](N)[C@H](O)[C@H](C)O1 [Doxorubicin]", "0/5"),
    ("COc1cc2c(Nc3ccc(Br)cc3F)ncnc2cc1OCC1CCN(C)CC1 [Vandetanib]", "5/5"),
]

For the compound C#Cc1cccc(Nc2ncnc3cc(OCCOC)c(OCCOC)cc23)c1 [Erlotinib] , report Flat T-wave-like, number of observations/total well numbers.
0/5
